Read-out: Interferon-gamma inducible Protein 10 (IP10), CXCL10 (gene 3627)
Assay: BSK_KF3CT_IP10: BioMAP Diversity Plus: KF3CT Assay for Interferon-gamma inducible Protein 10 (IP10) Biomarker Activity (AID 2283068)
Conditions: primary human keratinocytes with fibroblasts; actives raise or lower the signal
Calls of active or inactive are those of the source. How the source made its calls: active means hit-call score of the fitted dose curve at least 0.9, where 1 is the maximum; inactive means score below 0.9.
Respond using exactly one of the listed classes: YES for active, NO for inactive

INSERT INTO results (compound, classification) VALUES
  ('c1ccc2c(c1)ccc1ncccc12', 'NO');

Record lookup: outcome of this test for CO[Si](OC)(OC)c1ccccc1 ?
NO

Try this compound next: N#[N+]c1ccc2c(S(=O)(=O)[O-])cccc2c1O
NO

###

Target: Peroxisome proliferator-activated receptor gamma (Homo sapiens)
Experiment: NVS_NR_hPPARg: NovaScreen (NVS) Nuclear Receptor Binding Assay for human Peroxisome Proliferator-activated Receptor gamma (PPARg) (AID 2283370)
Protocol: NVS_NR_hPPARg is a biochemical, single-readout assay that uses extracted gene-proteins in a cell-free assay. Measurements were taken 2 hours after chemical dosing in a 384-well plate.NVS_NR_hPPARg is one of one assay component(s) measured or calculated from the NVS_NR_hPPARg assay. […] This assay endpoint, NVS_NR_hPPARg, was analyzed in the positive analysis fitting direction relative to DMSO as the negative control and baseline of activity. […]
Records with an inconclusive call do not appear. Active and inactive are the calls of the source. How the source made its calls: active means hit-call score of the fitted dose curve at least 0.9, where 1 is the maximum; inconclusive means response in the unintended direction; inactive means score below 0.9.
metric: AC50

INSERT INTO assay_data (molecular_string, result) VALUES
  ('C1CN(SSN2CCOCC2)CCO1', 'inactive'),
  ('CCCCC/C=C\CCC=O', 'inactive'),
  ('CCCCCCCCO[C@@H]1O[C@H](CO)[C@@H](O)[C@H](O)[C@H]1O', '36.5 µM (active)'),
  ('CCCCCCCCCCCCCOP(=O)(O)O', 'inactive');

###

Target: mouse Estrogen Receptor alpha (Era), Esr1 (gene 13982) (UniProt P19785)
Sequence (P19785 whole entry, looked up): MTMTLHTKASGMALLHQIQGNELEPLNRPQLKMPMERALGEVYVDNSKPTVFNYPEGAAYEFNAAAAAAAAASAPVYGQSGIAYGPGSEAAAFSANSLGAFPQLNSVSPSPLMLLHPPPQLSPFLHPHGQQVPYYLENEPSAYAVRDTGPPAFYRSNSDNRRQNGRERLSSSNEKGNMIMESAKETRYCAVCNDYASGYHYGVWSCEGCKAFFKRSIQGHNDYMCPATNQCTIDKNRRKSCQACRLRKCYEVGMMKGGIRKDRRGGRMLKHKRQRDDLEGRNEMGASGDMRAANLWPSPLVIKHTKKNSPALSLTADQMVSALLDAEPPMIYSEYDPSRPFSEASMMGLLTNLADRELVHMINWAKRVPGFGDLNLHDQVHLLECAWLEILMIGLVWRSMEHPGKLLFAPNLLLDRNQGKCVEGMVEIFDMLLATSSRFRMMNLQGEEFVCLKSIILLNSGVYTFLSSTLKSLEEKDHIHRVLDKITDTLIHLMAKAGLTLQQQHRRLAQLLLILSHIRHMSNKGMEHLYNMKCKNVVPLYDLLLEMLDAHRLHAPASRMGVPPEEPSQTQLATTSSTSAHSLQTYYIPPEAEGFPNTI
Assay: NVS_NR_mERa: NovaScreen (NVS) Nuclear Receptor Binding Assay for mouse Estrogen Receptor alpha (Era) (AID 2283378);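 further: hit means loss of bound radioligand signal relative to DMSO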
Records with an inconclusive call do not appear. The source made the active and inactive calls. The calls were made as follows: active = hit-call score of the fitted dose curve at least 0.9, where 1 is the maximum; inconclusive = response in the unintended direction; inactive = score below 0.9.
In this exercise, the only acceptable responses are active, inactive

INSERT INTO assay_data (molecule, experimental_system, classification) VALUES
  ('CCCCCCCC/C=C\CCCCCCCC(=O)O', 'mouse Estrogen Receptor alpha (Era), Esr1 (gene 13982) (UniProt P19785)', 'active'),
  ('C#CC1(O)CC[C@H]2[C@@H]3CCC4=CCCC[C@@H]4[C@H]3CC[C@@]21C (stereo partly specified)', 'mouse Estrogen Receptor alpha (Era), Esr1 (gene 13982) (UniProt P19785)', 'active'),
  ('CN(C)c1ccc(N=Nc2ccccc2C(=O)O)cc1', 'mouse Estrogen Receptor alpha (Era), Esr1 (gene 13982) (UniProt P19785)', 'inactive'),
  ('CCOC(=O)N1CCC(=C2c3ccc(Cl)cc3CCc3cccnc32)CC1', 'mouse Estrogen Receptor alpha (Era), Esr1 (gene 13982) (UniProt P19785)', 'inactive'),
  ('C=C[C@](C)(O)CC[C@@H]1[C@@]2(C)CCCC(C)(C)[C@@H]2CC[C@@]1(C)O', 'mouse Estrogen Receptor alpha (Era), Esr1 (gene 13982) (UniProt P19785)', 'inactive'),
  ('O=C(O)c1ccccc1Nc1cccc(C(F)(F)F)c1', 'mouse Estrogen Receptor alpha (Era), Esr1 (gene 13982) (UniProt P19785)', 'inactive'),
  ('O=C1Nc2ccccc2C1(c1ccc(O)cc1)c1ccc(O)cc1', 'mouse Estrogen Receptor alpha (Era), Esr1 (gene 13982) (UniProt P19785)', 'active'),
  ('CN(C)c1ccc(C(=N)c2ccc(N(C)C)cc2)cc1', 'mouse Estrogen Receptor alpha (Era), Esr1 (gene 13982) (UniProt P19785)', 'inactive'),
  ('CC(C)(c1cc(Br)c(OCCO)c(Br)c1)c1cc(Br)c(OCCO)c(Br)c1', 'mouse Estrogen Receptor alpha (Era), Esr1 (gene 13982) (UniProt P19785)', 'inactive'),
  ('O=C1CCCCCN1SSN1CCCCCC1=O', 'mouse Estrogen Receptor alpha (Era), Esr1 (gene 13982) (UniProt P19785)', 'inactive');

Call for entry CCCCCCCCCCCCCOP(=O)(O)O :
active

Entry O=S1(=O)OC(c2ccc(O)cc2)(c2ccc(O)cc2)c2ccccc21 please
active

Query O=C(O)CCCCCCCCCC(=O)O next
inactive

Please answer likewise for CC(C)C1=CC2=CC[C@@H]3[C@](C)(CCC[C@@]3(C)C(=O)O)[C@H]2CC1
inactive

Request: O=C(O)CCCC[C@@H]1SC[C@@H]2NC(=O)N[C@@H]21
inactive

And C=CC(C)(CCC=C(C)C)OC(=O)CC(C)C (stereo unspecified) ?
inactive

And what about the molecule CC(=O)OC(C)C ?
inactive

Another molecule to look at: CCCCC/C=C\C/C=C\CCCCCCCC(=O)OC
inactive

Entry COc1ccc(C(Cl)=C(c2ccc(OC)cc2)c2ccc(OC)cc2)cc1 please
active

Query CC/C=C\C/C=C\C/C=C\CCCCCCCC(=O)O next
inactive

Now try COc1ccc(-c2coc3cc(O)ccc3c2=O)cc1 .
active
